From: ChEMBL document CHEMBL2040850

Each entry below carries its recorded inhibition.
Target: Prostaglandin G/H synthase 2 (Homo sapiens)
Assay: Inhibition of human COX2 assessed as PGE2 formation at 100 uM by enzyme immunoassay
Report the figure in % without appending any unit label.

Field: example entries. Status: answers known.
NS(=O)(=O)c1ccc2[nH]cc(Cc3ccc(Cl)cc3)c2c1 ... 31
CS(=O)(=O)c1ccc2c(c1)c(Cc1ccc(Cl)cc1)cn2C=CCC(F)(F)F (mixture of isomers) ... 23
NS(=O)(=O)c1ccc(Cc2c[nH]c3ccc(Br)cc23)cc1 ... 27

State the recorded inhibition for this entry: NS(=O)(=O)c1ccc2[nH]cc(Cc3ccc(F)cc3)c2c1 20

State the recorded inhibition for this entry: CS(=O)(=O)c1ccc2[nH]cc(Cc3ccc(Br)cc3)c2c1 26

State the recorded inhibition for this entry: CS(=O)(=O)c1ccc2c(c1)c(Cc1ccc(Br)cc1)cn2CC(O)CC(F)(F)F (stereo unspecified) 15
